Numbers sourced from the supplement of paper PMC10567573.

B1: SNAP91 (parent)
chain: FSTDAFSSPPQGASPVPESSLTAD

variants of: B1; experiment: protein stability index of a GFP-peptide fusion (GPS, HEK-293T) (PSI 1-6); higher = more stable; conditions: c terminus: a fixed tail appended;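 note: lentivirally expressed fusions sorted by FACS into six bins by GFP to DsRed ratio, PSI derived from sequencing read proportions per bin multiplied by bin number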
metric_name: protein stability index
Reply: number alone, nothing else.

Ask: Requested read-out: protein stability index. Entry: "V16M"
Result: 2.68

Ask: Another: "P15C"
Result: 2.78

Ask: Now this one: "F1A"
Result: 5.73

Ask: Continue with "A5L"
Result: 3.55

Ask: Please do the same for "P17T" as well.
Result: 2.83

Ask: Same for "D24I"
Result: 2.92

Ask: Now consider "A13W" and answer again.
Result: 2.72

Ask: What about this variant? "P15D"
Result: 3.27

Ask: Would you mind doing "T3S" as well?
Result: 2.95

Ask: Next variant up: "S20C"
Result: 3.18
